- target_under_test: Acetylcholinesterase (Homo sapiens)
- protocol_description: Acetylcholinesterase inhibitory assay
recorded_endpoint: EC50
Show the value, then the unit it is measured in.

Form field EC50, entry C/C=C/c1ccc(OC)cc1 : 208 µM

====

- target_under_test: egg albumin (Gallus gallus)
- Construct: albumin was extracted from a fresh egg collected from local market of Jorhat, India
- Sequence (P01012 whole entry): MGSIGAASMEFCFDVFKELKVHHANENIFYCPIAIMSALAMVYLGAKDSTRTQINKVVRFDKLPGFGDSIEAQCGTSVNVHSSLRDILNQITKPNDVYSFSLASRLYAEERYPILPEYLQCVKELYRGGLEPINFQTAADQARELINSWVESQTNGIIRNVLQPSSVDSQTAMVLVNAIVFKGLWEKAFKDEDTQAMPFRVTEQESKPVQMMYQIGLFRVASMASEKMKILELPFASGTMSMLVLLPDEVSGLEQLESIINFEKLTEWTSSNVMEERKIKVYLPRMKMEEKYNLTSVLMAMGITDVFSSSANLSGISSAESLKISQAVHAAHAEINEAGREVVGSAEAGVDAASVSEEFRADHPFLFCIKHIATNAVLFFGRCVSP
- protocol_description: Protein egg albumin denaturation assay
recorded_endpoint: pEC50
Scale: negative log10 of molar concentration, which is what pEC50 denotes.

Form field pEC50, entry C/C=C/c1ccc(OC)cc1 [Anethole standard, anethole] : 3.88

====

- target_under_test: Acetylcholinesterase (Homo sapiens, UniProt P22303)
- Sequence (P22303 32-614, species assumed): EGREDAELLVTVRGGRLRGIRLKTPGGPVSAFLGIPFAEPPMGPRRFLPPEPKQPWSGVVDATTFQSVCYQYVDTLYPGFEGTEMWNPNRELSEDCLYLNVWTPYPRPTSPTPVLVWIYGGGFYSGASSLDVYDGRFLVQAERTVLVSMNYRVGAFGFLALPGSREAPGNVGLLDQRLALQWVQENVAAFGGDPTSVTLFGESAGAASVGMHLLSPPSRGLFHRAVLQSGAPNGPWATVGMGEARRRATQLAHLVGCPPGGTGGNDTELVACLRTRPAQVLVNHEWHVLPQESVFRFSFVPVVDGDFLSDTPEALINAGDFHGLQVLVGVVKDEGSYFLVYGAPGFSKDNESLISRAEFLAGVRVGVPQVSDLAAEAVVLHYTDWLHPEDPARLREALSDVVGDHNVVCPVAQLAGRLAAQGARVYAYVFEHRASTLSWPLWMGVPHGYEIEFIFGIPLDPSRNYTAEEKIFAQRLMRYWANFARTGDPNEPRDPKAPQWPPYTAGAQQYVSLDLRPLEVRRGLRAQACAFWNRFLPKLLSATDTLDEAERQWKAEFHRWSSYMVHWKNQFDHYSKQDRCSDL
- protocol_description: Acetylcholinesterase inhibitory assay
- Type: biochemical
- condition_details: Acetylcholinesterase inhibitory IC50, analyzed using Graph Pad Prism software
recorded_endpoint: IC50 (µM)
Dear colleague, please return just the value in µM, with no unit written.

Form field IC50, entry C/C=C/c1ccc(OC)cc1 : 145

====

- target_under_test: egg albumin (Gallus gallus)
- Construct: albumin was extracted from a fresh egg collected from local market of Jorhat, India; from tissue; host or cells: fresh egg (egg white), local market
- protocol_description: Protein egg albumin denaturation assay
- Type: biochemical
- condition_details: Protein denaturation IC50, analyzed using Graph Pad Prism software
recorded_endpoint: pIC50
Scale: negative log10 of molar concentration, which is what pIC50 denotes.

Form field pIC50, entry C/C=C/c1ccc(OC)cc1 : 2.86

====

- target_under_test: Acetylcholinesterase (Homo sapiens)
- protocol_description: Acetylcholinesterase inhibitory assay
- Type: biochemical
- condition_details: Acetylcholinesterase inhibitory IC50, analyzed using MS-EXCEL software
recorded_endpoint: pIC50
Scale: negative log10 of molar concentration, which is what pIC50 denotes.

Form field pIC50, entry C/C=C/c1ccc(OC)cc1 [Anethole standard, anethole] : 3.64
